# target_under_test: T1, catalytic domain of MMP-14 (cdMMP-14) (human, UniProt P50281 114-287, limits assumed, biotinylated (Sulfo-NHS-LC-Biotin) where immobilised via streptavidin)
# T1 construct: also called matrix metalloproteinase-14 catalytic domain; wild-type MMP-14
# assay_explanation: ELISA, Fab titrated on immobilised biotin-cdMMP-14, anti-Fab-HRP
Mark each entry MET if its EC50 sits below 600 nM, and NOT MET for all others.

[
  {
    "binder": "Fab 33C4 (Fab, V domains shown, also called R2C3; not shown: His tag at the C-terminus of the heavy chain) VH: EVQLVESGGGLVQPGGSLRLSCAASGFNLYSSSMHWVRQAPGKGLEWVASIYPYYGYTYYADSVKGRFTISADTSKNTAYLQMNSLRAEDTAVYYCARPTTSRVNKKLFRVSVLHPGSYGMDYWGQGTLVTVSS VL: DIQMTQSPSSLSASVGDRVTITCRASQSVSSAVAWYQQKPGKAPKLLIYSASSLYSGVPSRFSGSRSGTDFTLTISSLQPEDFATYYCQQASYLITFGQGTKVEIKR",
    "category_label": "MET"
  },
  {
    "binder": "Fab R2C16 (Fab, V domains shown) VH: EVQLVESGGGLVQPGGSLRLSCAASGFNIYSYSMHWVRQAPGKGLEWVASISSYYGYTYYADSVKGRFTISADTSKNTAYLQMNSLRAEDTAVYYCARFKNADFAAGGQWSKMLIARMYAMDYWGQGTLVTVSS VL: DIQMTQSPSSLSASVGDRVTITCRASQSVSSAVAWYQQKPGKAPKLLIYSASSLYSGVPSRFSGSRSGTDFTLTISSLQPEDFATYYCQQYYSLITFGQGTKVEIKR",
    "category_label": "NOT MET"
  },
  {
    "binder": "Fab R2C22 (Fab, V domains shown) VH: EVQLVESGGGLVQPGGSLRLSCAASGFNIYSSYMHWVRQAPGKGLEWVASIYSSYGSTYYADSVKGRFTISADTSKNTAYLQMNSLRAEDTAVYYCARHSRDGWQHWFGNWAGLHSYGMDYWGQGTLVTVSS VL: DIQMTQSPSSLSASVGDRVTITCRASQSVSSAVAWYQQKPGKAPKLLIYSASSLYSGVPSRFSGSRSGTDFTLTISSLQPEDFATYYCQQYYHYGYYLITFGQGTKVEIKR",
    "category_label": "MET"
  }
]

Now look at this one.
Ask | Please state whether EC50 is below 600 nM for Fab R2C12 (Fab, V domains shown) VH: EVQLVESGGGLVQPGGSLRLSCAASGFNISSSYMHWVRQAPGKGLEWVASIYSYSSYTYYADSVKGRFTISADTSKNTAYLQMNSLRAEDTAVYYCARSDSWVQGRDFCYYSAWVGYGMDYWGQGTLVTVSS VL: DIQMTQSPSSLSASVGDRVTITCRASQSVSSAVAWYQQKPGKAPKLLIYSASSLYSGVPSRFSGSRSGTDFTLTISSLQPEDFATYYCQQGYYALFTFGQGTKVEIKR
Reply | MET
